Collected IC50 values appear next to each entry.
- System: arteria coronaria vessel rings
- procedure-text: Inhibition of K^+ depolarization contraction of isolated vessel rings (a. coronaria) in the organ bath
- Format: cell-based
- cond: rabbit a. coronaria rings, mean diameter 0.5-1.0 mm, potassium depolarization in Tyrode's solution, read-out: Concentration (IC50) effecting a semimaximal inhibition of the K^+ -depolarization contraction of vessel rings, a. coronaria
I only need the number, in nM, no unit after it.

The following compounds have reported results that may help.
[
  {
    "compound": "CC1=C(C(=O)OC(C)C)C(c2cccc([N+](=O)[O-])c2)c2c(ncnc2OC(C)C)N1 (racemic) [Example 1d]",
    "units": "nM",
    "IC50": 160
  },
  {
    "compound": "COC(=O)C1=C(C)Nc2ncnc(OC(C)C)c2C1c1ccccc1C(F)(F)F (racemic) [Example 1c]",
    "units": "nM",
    "IC50": 45
  },
  {
    "compound": "COCCOC(=O)C1=C(C)Nc2ncnc(OC(C)C)c2C1c1cccc([N+](=O)[O-])c1 (racemic) [Example 1b]",
    "units": "nM",
    "IC50": 34
  }
]

Task item: Query IC50 on arteria coronaria vessel rings for CCOC(=O)C1=C(C)Nc2ncnc(OC(C)C)c2C1c1ccccc1C(F)(F)F (racemic) [Example 1f]
Reply: 34

Task item: What IC50 appears in the records for this compound with arteria coronaria vessel rings? CCOC(=O)C1=C(N)Nc2ncnc(OC(C)C)c2C1c1ccccc1OC (racemic) [Example 1e]
Reply: 73

Task item: Record lookup: for arteria coronaria vessel rings, what IC50 belongs to COc1ncnc2c1C(c1cccc([N+](=O)[O-])c1)C(C(=O)OC(C)C)=C(C)N2 (racemic) [Example 2] ?
Reply: 140

Task item: Look up IC50 with arteria coronaria vessel rings for this compound: COC(=O)C1=C(C)Nc2ncnc(OC(C)C)c2C1c1cccc([N+](=O)[O-])c1 (racemic) [Example 1g]
Reply: 230
